Below is a list of entries, each paired with its recorded Max. response (fold over basal ± S.E.M.), rat ortholog value.
Target: T1, rat CaSR (rCaSR) (Rattus norvegicus, UniProt P48442)
T1 construct: mGlu5 signal peptide (N); expressed in transfected cells; host or cells: HEK293A, transient transfection
T1 sequence (P48442 20-1079): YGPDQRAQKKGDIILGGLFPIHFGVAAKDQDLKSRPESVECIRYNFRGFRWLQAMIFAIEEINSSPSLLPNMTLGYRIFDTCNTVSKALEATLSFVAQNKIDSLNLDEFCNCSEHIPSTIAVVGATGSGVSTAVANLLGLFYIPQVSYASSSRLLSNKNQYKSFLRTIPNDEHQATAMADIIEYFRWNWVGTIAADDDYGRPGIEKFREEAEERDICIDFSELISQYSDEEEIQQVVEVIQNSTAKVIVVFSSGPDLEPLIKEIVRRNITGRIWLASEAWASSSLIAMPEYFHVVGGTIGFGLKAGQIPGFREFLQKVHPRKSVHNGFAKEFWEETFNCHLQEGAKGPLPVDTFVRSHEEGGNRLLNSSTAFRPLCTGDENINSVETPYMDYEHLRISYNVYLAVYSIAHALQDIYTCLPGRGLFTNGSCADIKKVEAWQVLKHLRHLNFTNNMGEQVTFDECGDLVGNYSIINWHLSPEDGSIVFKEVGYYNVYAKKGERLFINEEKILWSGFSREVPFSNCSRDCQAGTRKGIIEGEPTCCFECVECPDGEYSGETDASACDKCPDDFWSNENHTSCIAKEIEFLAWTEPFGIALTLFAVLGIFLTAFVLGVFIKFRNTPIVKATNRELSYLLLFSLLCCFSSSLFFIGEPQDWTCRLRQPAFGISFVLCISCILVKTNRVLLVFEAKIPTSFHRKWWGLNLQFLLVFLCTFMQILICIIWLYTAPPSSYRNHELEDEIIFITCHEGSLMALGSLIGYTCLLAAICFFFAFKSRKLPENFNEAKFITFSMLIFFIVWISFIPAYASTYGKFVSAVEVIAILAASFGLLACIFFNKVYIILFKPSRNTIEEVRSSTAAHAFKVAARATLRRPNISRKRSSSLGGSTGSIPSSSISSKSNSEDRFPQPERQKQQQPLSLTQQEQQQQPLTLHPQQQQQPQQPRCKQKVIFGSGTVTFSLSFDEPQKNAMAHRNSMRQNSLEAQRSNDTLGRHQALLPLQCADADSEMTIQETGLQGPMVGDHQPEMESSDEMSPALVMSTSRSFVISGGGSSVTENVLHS
Assay: IP1 accumulation assay, HEK293A cells transiently transfected with HA-rCaSR WT
Type: cell-based
Settings: IP1 accumulation at EC20 Ca2+
VALUE_TYPE: Max. response (fold over basal ± S.E.M.), rat ortholog (fold over basal)

{"columns": ["MOLECULE", "READING"],
 "data": [
  ["Nb4: llama-derived CaSR-specific nanobody acting as PAM, SEQ ID NO:5 (protein, CaSR Nb4) VHH: QVQLVESGGGLVQAGGSLRLSCAASGRTFSTYRMGWFRQGLGKEREFVAAITANGVRTFYTDSVKGRFTISRDNAKNTLYLQMNSLQPDDTAVYLCAARRKGIFTVQQAQDITDWDYWGQGTQVTVSS", 3.03],
  ["Nb15: llama-derived CaSR-specific nanobody acting as PAM, SEQ ID NO:10 (protein, CaSR Nb15) VHH: QVQLVESGGGLVQAGGSLRLSCAASGRTFNNYHMAWFRQAPGKEREFAAAISRRAGTTYYADSVKGRFTISRDNAKNTVYLQMNSLKPEDTAVYYCAADPDTYGVSYLARKYDYWGQGTQVTVSS", 2.88]
]}

Values compiled from patent US20220411495A1.
